Target: T1, human adenosine A2A receptor (A2aR) (human, UniProt P29274 1-412)
T1 construct: Assays used HEK293 cells stably overexpressing human A2aR (BPS Bioscience 79381), human A2aR-expressing CHO cells, or endogenous A2aR on human PBMC; also called human A2aR; hA2aR
T1 sequence (P29274 whole entry): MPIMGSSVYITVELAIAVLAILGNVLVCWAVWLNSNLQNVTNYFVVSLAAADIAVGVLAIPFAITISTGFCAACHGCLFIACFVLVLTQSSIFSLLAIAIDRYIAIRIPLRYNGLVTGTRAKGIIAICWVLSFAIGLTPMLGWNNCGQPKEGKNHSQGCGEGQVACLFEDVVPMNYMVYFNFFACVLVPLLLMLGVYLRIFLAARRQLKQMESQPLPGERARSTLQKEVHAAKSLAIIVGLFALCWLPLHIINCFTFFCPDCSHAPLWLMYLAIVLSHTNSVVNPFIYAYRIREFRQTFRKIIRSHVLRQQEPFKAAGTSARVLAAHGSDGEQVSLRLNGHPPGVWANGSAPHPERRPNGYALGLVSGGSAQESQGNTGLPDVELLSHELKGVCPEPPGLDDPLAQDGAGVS
Experiment: flow cytometry titration, HEK293-hA2aR cells, purified antibody
measurement_label: pEC50
The scale used: pEC50 is minus the common logarithm of the concentration in molar units.

A selection of reference data follows.
Hu3F8-H3/Hu3F8-L3 (antibody, human IgG1, V domains shown, Human IgG1 FES (L234F, L235E, P331S) and human Ig kappa constant domains; also called Hu3F8 VH3/VL3) VH: EVQLVQSGAEVKKPGASVKVSCKASGFTFTRYWMNWVRQAPGQGLEWIGRIDPSDSETHYNHKFWGRATLTVDTSTSTVYMELSSLRSEDTAVYYCLRSLYGKGDYWGQGTTVTVSS VL: DVVMTQSPLSLPVTLGQPASISCRSSQSIVHSNGNTYLEWYQQRPGQSPRLLIYKVSNRFSGVPDRFSGSGSGTDFTLKISRVEAEDVGVYYCYQGSHVPLTFGGGTKVEIK ... 9.16
Hu3F6-H5/Hu3F6-L3 (antibody, human IgG1, V domains shown, Human IgG1 FES (L234F, L235E, P331S) and human Ig kappa constant domains; also called Hu3F6 VH5/VL3) VH: EVQLVQSGAEVKKPGASVKVSCKTSGFAFTSYWMNWVRQAPGQGLEWIGRIDPSDSEAHYAHKFWGRATLTVDKSSSTVYMELSSLRSEDTAVYYCLRSLYGKGDYWGHGTTVTVSS VL: DVVMTQSPLSLPVTLGQPASISCRSSQSLVHRNGNTYLEWYQQRPGQSPRLLIYKVSNRFSGVPDRFSGSGSGTDFTLKISRVEAEDVGVYYCYQGSHVPLTFGGGTKVEIK ... 9.30

Req: Return the recorded pEC50 value; entry: Hu3F6-H3/Hu3F6-L8 (antibody, human IgG1, V domains shown, Human IgG1 FES (L234F, L235E, P331S) and human Ig kappa constant domains; also called Hu3F6 VH3/VL8) VH: EVQLVQSGAEVKKPGASVKVSCKTSGFAFTSYWMNWVRQAPGQGLEWIGRIDPSDSEAHYHHKFWGRATLTVDTSSSTVYMELSSLRSEDTAVYYCLRSLYGKGDYWGHGTTVTVSS VL: DVVMTQSPLSLPVTPGEPASISCRSSQSLVHRNGNTYLEWYLQKPGQSPQLLIYKVSNRFSGVPDRFSGSGSGTDFTLKISRVEAEDVGVYYCYQGSHVPLTFGGGTKVEIK
Resp: 9.12
